Please respond with reported Ki for every item in the list.
molecular target: UniProt:Q9Y5X5; test: Binding affinity at cloned recombinant human NPFF2 receptor
Answer with a number only, understood to be in µM.

Query block: Tell us which Ki value is on record for CCc1cc(NC(=N)N)nc2cc(C)ccc12 [Compound 6003]
Result block: 0.113

Query block: Tell us which Ki value is on record for CCCCCc1ccc2nc(NC(=N)N)cc(C)c2c1 [Compound 5002]
Result block: 0.46

Query block: Tell us which Ki value is on record for Cc1nc(NC(=N)N)nc2ccc3ccccc3c12 [Compound 1007]
Result block: 0.26

Query block: Tell us which Ki value is on record for Cc1cc(NC(=N)N)nc2ccc3ccccc3c12 [Compound 4009]
Result block: 0.826

Query block: Tell us which Ki value is on record for CCc1ccc2nc(NC(=N)N)cc(C)c2c1 [Compound 4002]
Result block: 0.232

Query block: Tell us which Ki value is on record for Cc1cc(NC(=N)N)nc2ccc(-c3ccccc3)cc12 [Compound 4003]
Result block: 2.12

Query block: Tell us which Ki value is on record for Cc1ccc2c(C)nc(NC(=N)N)nc2c1 [Compound 3001, N-(4,7-dimethyl-2-quinazolinyl)guanidine]
Result block: 1.72

Query block: Tell us which Ki value is on record for Cc1ccc2nc(NC(=N)N)cc(C)c2c1 [Compound 4001, N-(4,6-dimethyl-2-quinolinyl)guanidine]
Result block: 0.15

Query block: Tell us which Ki value is on record for Cc1nc(NC(=N)N)nc2ccccc12 [Compound 1001, N-(4-methyl-2-quinazolinyl)guanidine]
Result block: 2.04

---

molecular target: rNPFF2 (Rattus norvegicus, UniProt Q9EQD2); experiment: Functional assay (agonist potency, intrinsic activity) at cloned rat NPFF2 receptor; conditions: recombinant rat NPFF2
Sequence (Q9EQD2 whole entry): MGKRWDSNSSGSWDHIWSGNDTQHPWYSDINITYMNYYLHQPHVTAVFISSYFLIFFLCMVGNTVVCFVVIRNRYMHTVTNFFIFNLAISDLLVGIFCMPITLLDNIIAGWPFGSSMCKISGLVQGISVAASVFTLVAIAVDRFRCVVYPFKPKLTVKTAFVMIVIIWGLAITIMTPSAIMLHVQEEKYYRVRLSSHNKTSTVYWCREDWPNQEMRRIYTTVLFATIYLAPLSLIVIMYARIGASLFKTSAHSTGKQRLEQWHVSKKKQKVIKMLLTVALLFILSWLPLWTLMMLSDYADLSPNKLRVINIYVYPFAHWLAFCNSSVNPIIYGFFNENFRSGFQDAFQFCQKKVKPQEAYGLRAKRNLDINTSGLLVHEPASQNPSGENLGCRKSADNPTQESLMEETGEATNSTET
readout.name: pEC50
pEC50 here: minus log base 10 of the concentration, concentration in moles per litre.

Query block: Tell us which pEC50 value is on record for CCCc1ccc2nc(NC(=N)N)nc(C)c2c1
Result block: 6.21

Query block: Tell us which pEC50 value is on record for Cc1nc(NC(=N)N)nc2ccc3ccccc3c12
Result block: 5.89

Query block: Tell us which pEC50 value is on record for Cc1cc(NC(=N)N)nc2ccc3ccccc3c12
Result block: 5.50

Query block: Tell us which pEC50 value is on record for CCCCCCc1ccc2nc(NC(=N)N)cc(C)c2c1
Result block: 5.00

Query block: Tell us which pEC50 value is on record for Cc1nc(NC(=N)N)nc2ccc(C(C)(C)C)cc12
Result block: 6.36

Query block: Tell us which pEC50 value is on record for Cc1nc(NC(=N)N)nc2ccccc12
Result block: 5.51

Query block: Tell us which pEC50 value is on record for CCc1ccc2c(C)nc(NC(=N)N)nc2c1
Result block: 6.16

Query block: Tell us which pEC50 value is on record for Cc1nc(NC(=N)N)nc2cc(C(C)C)ccc12
Result block: 6.55

Query block: Tell us which pEC50 value is on record for CCCCCc1ccc2nc(NC(=N)N)nc(C)c2c1
Result block: 7.01

Query block: Tell us which pEC50 value is on record for Cc1nc(NC(=N)N)nc2cc3c(cc12)C=CCC3
Result block: 5.50

Query block: Tell us which pEC50 value is on record for CCC(C)c1ccc2nc(NC(=N)N)nc(C)c2c1 (centres unmarked)
Result block: 6.37

Query block: Tell us which pEC50 value is on record for Cc1nc(NC(=N)N)nc2ccc(Cl)cc12
Result block: 6.16

Query block: Tell us which pEC50 value is on record for CCCCc1ccc2nc(NC(=N)N)cc(C)c2c1
Result block: 7.16

Query block: Tell us which pEC50 value is on record for Cc1nc(NC(=N)N)nc2ccc(Oc3ccccc3)cc12
Result block: 6.34

Query block: Tell us which pEC50 value is on record for Cc1nc(NC(=N)N)nc2cc(-c3ccccc3)ccc12
Result block: 5.50

Query block: Tell us which pEC50 value is on record for CCc1ccc2nc(NC(=N)N)nc(C)c2c1
Result block: 6.41

Query block: Tell us which pEC50 value is on record for CCCCOc1ccc2nc(NC(=N)N)nc(C)c2c1
Result block: 5.79

Query block: Tell us which pEC50 value is on record for Cc1nc(NC(=N)N)nc2cc3c(cc12)CCC3
Result block: 7.32

---

Where a name gives a salt, the structure may show the parent alone.
Please respond with reported melting point for every item in the list.

Query block: Tell us which melting point value is on record for Cc1nc(NC(=N)N)nc2cc(OCc3ccccc3)ccc12 (as salt: salt) [Compound 1006]
Result block: 215 to 217 °C (dec.)

Query block: Tell us which melting point value is on record for Cc1cc2nc(NC(=N)N)nc(C)c2cc1O (as salt: salt) [Compound 1017]
Result block: 246 to 248 °C (dec.)

Query block: Tell us which melting point value is on record for Cc1nc(NC(=N)N)nc2cc(C(C)(C)C)ccc12 [Compound 1022]
Result block: 195 to 198 °C (dec.)

Query block: Tell us which melting point value is on record for Cc1nc(NC(=N)N)nc2cc3c(cc12)CCC3 [Compound 1038]
Result block: 295 to 298 °C (dec.)

---

target: hNPFF2 (Homo sapiens, UniProt Q9Y5X5); construct: expressed in transfected cells; assay: Functional assay (agonist potency, intrinsic activity) at cloned human NPFF2 receptor; format: cell-based; conditions: percent of maximum response elicited by neuropeptide FF; human NPFF2
Sequence (Q9Y5X5 103-522): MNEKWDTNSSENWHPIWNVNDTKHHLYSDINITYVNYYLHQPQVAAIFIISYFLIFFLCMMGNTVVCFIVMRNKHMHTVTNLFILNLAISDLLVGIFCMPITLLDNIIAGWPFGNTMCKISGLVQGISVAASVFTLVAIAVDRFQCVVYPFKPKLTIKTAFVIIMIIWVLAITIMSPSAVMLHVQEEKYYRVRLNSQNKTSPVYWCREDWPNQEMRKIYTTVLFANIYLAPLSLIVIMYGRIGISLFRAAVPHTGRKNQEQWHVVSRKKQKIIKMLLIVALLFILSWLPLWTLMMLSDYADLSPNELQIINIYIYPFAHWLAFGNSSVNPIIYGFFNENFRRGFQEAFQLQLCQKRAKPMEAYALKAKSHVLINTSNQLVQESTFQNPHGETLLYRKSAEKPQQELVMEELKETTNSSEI
readout.name: hNPFF2 IA (intrinsic activity) (% NPFF)
Answer with a number only, understood to be in % NPFF.

Query block: Give hNPFF2 IA (intrinsic activity) for this entry on hNPFF2 (Homo sapiens, UniProt Q9Y5X5): Cc1nc(NC(=N)N)nc2cc(-c3ccccc3)ccc12
Result block: 43

Query block: Give hNPFF2 IA (intrinsic activity) for this entry on hNPFF2 (Homo sapiens, UniProt Q9Y5X5): CCCCCc1ccc2nc(NC(=N)N)cc(C)c2c1
Result block: 75

Query block: Give hNPFF2 IA (intrinsic activity) for this entry on hNPFF2 (Homo sapiens, UniProt Q9Y5X5): CCCCCc1ccc2nc(NC(=N)N)nc(C)c2c1
Result block: 84

Query block: Give hNPFF2 IA (intrinsic activity) for this entry on hNPFF2 (Homo sapiens, UniProt Q9Y5X5): CCCCCCc1ccc2nc(NC(=N)N)cc(C)c2c1
Result block: 45

Query block: Give hNPFF2 IA (intrinsic activity) for this entry on hNPFF2 (Homo sapiens, UniProt Q9Y5X5): CCc1ccc2nc(NC(=N)N)cc(C)c2c1
Result block: 69

---

Please respond with reported pKi for every item in the list.
target: rNPFF2 (Rattus norvegicus, UniProt Q9EQD2); experiment: Binding affinity at cloned recombinant rat NPFF2 receptor
pKi here: minus log base 10 of the concentration, concentration in moles per litre.

Query block: Tell us which pKi value is on record for CCCCc1ccc2nc(NC(=N)N)cc(C)c2c1
Result block: 6.94

Query block: Tell us which pKi value is on record for Cc1cc(NC(=N)N)nc2ccc(-c3ccccc3)cc12
Result block: 5.90

Query block: Tell us which pKi value is on record for Cc1ccc2nc(NC(=N)N)nc(C)c2c1
Result block: 5.41

Query block: Tell us which pKi value is on record for Cc1nc(NC(=N)N)nc2cc(OC(C)C)ccc12
Result block: 5.34

Query block: Tell us which pKi value is on record for CCc1ccc2nc(NC(=N)N)cc(C)c2c1
Result block: 6.51

---

target: rNPFF1 (Rattus norvegicus); construct: expressed in transfected cells; assay: Binding affinity at cloned recombinant rat NPFF1 receptor
Sequence (Q9EP86 whole entry): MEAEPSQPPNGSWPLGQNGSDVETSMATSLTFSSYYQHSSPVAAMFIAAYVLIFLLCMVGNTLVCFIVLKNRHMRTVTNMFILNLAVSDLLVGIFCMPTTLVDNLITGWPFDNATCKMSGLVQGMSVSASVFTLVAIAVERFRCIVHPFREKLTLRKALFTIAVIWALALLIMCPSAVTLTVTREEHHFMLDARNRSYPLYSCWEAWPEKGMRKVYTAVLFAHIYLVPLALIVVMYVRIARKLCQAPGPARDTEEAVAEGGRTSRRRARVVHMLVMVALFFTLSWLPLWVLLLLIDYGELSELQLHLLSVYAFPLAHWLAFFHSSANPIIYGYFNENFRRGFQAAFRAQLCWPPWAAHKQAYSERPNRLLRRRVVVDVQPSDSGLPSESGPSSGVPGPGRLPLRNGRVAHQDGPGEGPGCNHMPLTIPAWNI
API: label(entry) gives yes (1) if the entry's Ki is strictly smaller than 200 nM; on equality or larger values it gives no (0).

Query block: Strictly below 200 nM in Ki? CCCCCOc1ccc2nc(NC(=N)N)nc(C)c2c1 [Compound 1031]
Result block: no (0)

Query block: Strictly below 200 nM in Ki? CCc1ccc2nc(NC(=N)N)cc(C)c2c1 [Compound 4002]
Result block: yes (1)

Query block: Strictly below 200 nM in Ki? Cc1ccc2nc(NC(=N)N)nc(C)c2c1 [Compound 1002, N-(4,6-dimethyl-2-quinazolinyl)guanidine]
Result block: yes (1)

Query block: Strictly below 200 nM in Ki? Cc1nc(NC(=N)N)nc2ccc(-c3ccccc3)cc12 [Compound 1010]
Result block: no (0)

---

Biological target: UniProt Q9EP86
Test: Functional assay (agonist potency, intrinsic activity) at cloned rat NPFF1 receptor
Details: recombinant rat NPFF1
Experimental: Intrinsic activity of a compound is measured as the percent of maximum response.
readout.name: EC50

Query block: Tell us which EC50 value is on record for Cc1ccc2c(C)cc(NC(=N)N)nc2c1
Result block: > 10 µM

Query block: Tell us which EC50 value is on record for Cc1cc(NC(=N)N)nc2cc(F)ccc12
Result block: > 10 µM

Query block: Tell us which EC50 value is on record for Cc1nc(NC(=N)N)nc2cc(OC(F)(F)F)ccc12
Result block: > 10 µM

Query block: Tell us which EC50 value is on record for Cc1nc(NC(=N)N)nc2ccccc12
Result block: > 10 µM

Query block: Tell us which EC50 value is on record for Cc1nc(NC(=N)N)nc2cc(C(C)O)ccc12 (stereo not shown)
Result block: > 10 µM

Query block: Tell us which EC50 value is on record for COc1ccc2nc(NC(=N)N)cc(C)c2c1
Result block: > 10 µM

Query block: Tell us which EC50 value is on record for Cc1ccc2nc(NC(=N)N)nc(C)c2c1
Result block: > 10 µM

Query block: Tell us which EC50 value is on record for Cc1cc(NC(=N)N)nc2ccc(-c3ccccc3)cc12
Result block: > 10 µM

Query block: Tell us which EC50 value is on record for CCCc1ccc2nc(NC(=N)N)nc(C)c2c1
Result block: > 10 µM

Query block: Tell us which EC50 value is on record for Cc1nc(NC(=N)N)nc2cc(OC(C)C)ccc12
Result block: > 10 µM

Query block: Tell us which EC50 value is on record for Cc1nc(NC(=N)N)nc2ccc(C(C)(C)C)cc12
Result block: 1.47 µM

Query block: Tell us which EC50 value is on record for CCCCCc1ccc2nc(NC(=N)N)nc(C)c2c1
Result block: 0.242 µM

Query block: Tell us which EC50 value is on record for CCCCCCc1ccc2nc(NC(=N)N)cc(C)c2c1
Result block: 0.44 µM

Query block: Tell us which EC50 value is on record for Cc1nc(NC(=N)N)nc2cc(F)c(F)cc12
Result block: > 10 µM

Query block: Tell us which EC50 value is on record for Cc1nc(NC(=N)N)nc2ccc(Oc3ccccc3)cc12
Result block: 0.374 µM

Query block: Tell us which EC50 value is on record for Cc1nc(NC(=N)N)nc2cc(C(C)C)ccc12
Result block: > 10 µM
